src = patent US9834564B2

# studyTarget: recombinant human PDE-10 enzyme (PDE-10A) (Homo sapiens (Human), UniProt Q9Y233)
# Sequence (Q9Y233 whole entry): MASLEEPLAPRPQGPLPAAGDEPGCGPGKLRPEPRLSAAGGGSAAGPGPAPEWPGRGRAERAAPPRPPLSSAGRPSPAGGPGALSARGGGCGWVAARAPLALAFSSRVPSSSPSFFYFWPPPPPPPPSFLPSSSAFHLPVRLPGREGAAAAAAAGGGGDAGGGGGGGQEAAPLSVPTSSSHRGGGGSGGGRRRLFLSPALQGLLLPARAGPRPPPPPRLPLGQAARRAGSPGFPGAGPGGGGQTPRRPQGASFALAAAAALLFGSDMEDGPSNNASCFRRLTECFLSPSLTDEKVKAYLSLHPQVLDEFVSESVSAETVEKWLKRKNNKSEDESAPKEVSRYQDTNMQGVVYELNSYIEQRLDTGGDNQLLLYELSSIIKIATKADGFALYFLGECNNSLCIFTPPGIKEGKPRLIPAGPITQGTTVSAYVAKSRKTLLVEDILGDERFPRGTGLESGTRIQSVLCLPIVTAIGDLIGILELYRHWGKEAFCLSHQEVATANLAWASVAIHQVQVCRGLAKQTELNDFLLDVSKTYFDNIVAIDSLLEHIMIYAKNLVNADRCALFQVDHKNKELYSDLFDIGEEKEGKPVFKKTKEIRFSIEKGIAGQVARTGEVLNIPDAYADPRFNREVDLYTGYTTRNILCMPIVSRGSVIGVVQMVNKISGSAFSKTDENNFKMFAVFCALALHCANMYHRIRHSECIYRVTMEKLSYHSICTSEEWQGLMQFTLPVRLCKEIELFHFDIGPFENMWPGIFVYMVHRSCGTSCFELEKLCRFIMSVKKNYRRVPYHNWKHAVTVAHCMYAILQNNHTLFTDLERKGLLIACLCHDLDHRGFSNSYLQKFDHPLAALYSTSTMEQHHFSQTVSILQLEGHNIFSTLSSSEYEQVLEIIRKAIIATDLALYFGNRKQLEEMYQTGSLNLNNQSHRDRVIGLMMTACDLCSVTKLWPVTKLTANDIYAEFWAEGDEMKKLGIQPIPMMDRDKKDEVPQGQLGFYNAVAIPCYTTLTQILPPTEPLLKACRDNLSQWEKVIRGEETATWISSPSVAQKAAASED
# assayComment: IMAP PDE Fluorescence Polarization assay, human PDE-10 inhibition (enzyme assay)
# Type: biochemical
# conditionDescription: recombinant human PDE-10, fluorescein-labeled cAMP/cGMP substrate, 40 min at 37° C.
propertyLabel: IC50

Study these solved cases before continuing.
c1ccc(-c2c[nH]c(CCc3ncc4ccccc4n3)n2)cc1 ... < 500 nM
C(=C\c1cccs1)/c1nc(-c2ccccc2)c[nH]1 ... > 10000 nM
O=c1[nH]c(CCc2nc(-c3ccncc3)c[nH]2)nc2ccccc12 ... 1000 to 10000 nM
c1ccc2nc(CCc3nc(-c4ccsc4)c[nH]3)ccc2c1 ... < 500 nM

Lab note: measured IC50 of `Cc1ncc(C)c2nc(CCc3nc4c(ccc5ncccc54)[nH]3)ccc12` was < 500 nM

* * *

# studyTarget: recombinant human PDE-10 enzyme (PDE-10A) (Homo sapiens (Human))
# assayComment: IMAP PDE Fluorescence Polarization assay, human PDE-10 inhibition (enzyme assay)
# Format: biochemical
# conditionDescription: recombinant human PDE-10, fluorescein-labeled cAMP/cGMP substrate, 40 min at 37° C.
pIC50: −log10 of the molar value.
So I've got a bunch of molecules here, and I need their pIC50 values.

Take a look at these entries with their results.
Fc1cc2[nH]c(CCc3cnc4ccccc4n3)nc2cc1Cl ... 6.00 to 6.30
Cn1c(CCc2ccc3ccc4cccnc4c3n2)nc2c3cccnc3ccc21 ... > 6.30
Cc1ncc(C)n2nc(CCc3ccc4ccc5nccnc5c4n3)nc12 ... > 6.30
Cn1c(CCc2ccc3ccccc3n2)nc2c3ccccc3ccc21 ... > 6.30
Cn1cc(-c2ccccc2F)nc1CCc1ccc2ccccc2n1 ... > 6.30

Could I get pIC50 for every one of these entries?
1. c1ccc2nc(CCc3nc4c5ncccc5ccn4n3)ccc2c1
2. Cn1nc(-c2ccccc2)cc1CCc1nc2ccccc2c(=O)[nH]1
3. Cc1ccc(C)c2nc(CCc3nc4c5cccnc5ccc4n3C)cnc12
4. Cn1cc(-c2ccccc2)nc1CCc1cccc(C(N)=O)n1
5. c1ccc2nc(CCc3nc4c5cccnc5ccn4n3)ccc2c1
6. Cc1ncc(C)c2nc(CCc3nc4c5cccnc5ccn4n3)ccc12
7. Cn1c(CCc2nc(C(F)(F)F)cc(C(F)(F)F)n2)nc2c3cccnc3ccc21
8. O=c1[nH]c(CCc2nc(-c3ccccc3)c[nH]2)nc2ccccc12

[out]
["> 6.30", "5.00 to 6.00", "> 6.30", "< 5.00", "> 6.30", "> 6.30", "> 6.30", "> 6.30"]

Go through the list and state pIC50 for each entry.
1. Cc1ccc2ncc(CCc3nc4c(C)ncc(C)n4n3)nc2c1C
2. Cc1ccc2nc(CCc3cn4ccc5ncccc5c4n3)ccc2n1
3. c1cnc2nc(CCc3cn4ccc5ncccc5c4n3)ccc2c1
4. c1ccc2nc(CCc3cn4ccc5ncccc5c4n3)cnc2c1

[out]
["> 6.30", "> 6.30", "5.00 to 6.00", "> 6.30"]

Give pIC50 for all molecules that follow.
1. Cc1ccc2ccc(CCc3nc4c(C)ncc(C)n4n3)nc2c1C
2. c1ccc(-c2c[nH]c(CCc3cc4ccccc4cn3)n2)cc1

[out]
["> 6.30", "> 6.30"]

* * *

Please provide measured IC50 for the entries that follow.
# studyTarget: recombinant human PDE-10 enzyme (PDE-10A) (Homo sapiens (Human))
# assayComment: IMAP PDE Fluorescence Polarization assay, human PDE-10 inhibition (enzyme assay)
# Assay type: biochemical
# conditionDescription: recombinant human PDE-10, fluorescein-labeled cAMP/cGMP substrate, 40 min at 37° C.

Return reported IC50 values for all items listed beneath this line.
1. Cc1ncc(C)c2nc(CCc3nc4c5ncccc5ccc4n3C)ccc12 [Compound 164]
2. O=c1[nH]c(CCc2cc(-c3ccccc3)n[nH]2)nc2ccccc12 [Compound 14]

[out]
1. < 0.5 µM
2. 1 to 10 µM

Data point: O=c1[nH]c(/C=C/c2ccc(-c3ccccc3)s2)nc2ccccc12 [Compound 38] ; IC50 = > 10 µM

* * *

# studyTarget: recombinant human PDE-10 enzyme (PDE-10A) (Homo sapiens (Human), UniProt Q9Y233)
# assayComment: IMAP PDE Fluorescence Polarization assay, human PDE-10 inhibition (enzyme assay)
# Format: biochemical
# conditionDescription: recombinant human PDE-10, fluorescein-labeled cAMP/cGMP substrate, 40 min at 37° C.
propertyLabel: IC50

Here are 10 compounds together with their reported answers.
Cc1ccc2nc(CCc3nc4c5cccnc5ccn4c3C)ccc2n1 [Compound 202] ... < 500 nM
Cc1ncc(C)n2nc(CCc3ccc4ccc5c(c4n3)NCCO5)nc12 [Compound 168] ... 1000 to 10000 nM
c1ccc(-c2c[nH]c(CCc3ccc4ccccc4n3)n2)cc1 [Compound 11] ... < 500 nM
O=c1[nH]c(CCc2nc(-c3ccc4c(c3)OCO4)c[nH]2)nc2ccccc12 [Compound 65] ... 1000 to 10000 nM
Cc1ccc2ccc(CCc3cn4ccc5ncccc5c4n3)nc2n1 [Compound 196] ... 500 to 1000 nM
FC(F)(F)c1cnc2nc(CCc3nc4c5cccnc5ccn4n3)ccc2c1 [Compound 182] ... > 10000 nM
c1ccc(-n2ccc(CCc3cnc4ccccc4n3)n2)cc1 [Compound 79] ... 500 to 1000 nM
c1ccc(-c2c[nH]c(CCc3cccs3)n2)cc1 [Compound 29] ... > 10000 nM
Cc1cc2ncccc2c2nc(CCc3ccc4ccccc4n3)n(C)c12 [Compound 170] ... < 500 nM
O=c1[nH]c(CCc2nc(-c3ccsc3)c[nH]2)nc2ccccc12 [Compound 64] ... < 500 nM

Give me IC50 for each of these compounds, listed below.
1. Cn1c(CCc2cnc3ccccc3n2)nc2ccccc21 [Compound 26]
2. COc1cccc2ccc(CCc3nc4c5ncccc5ccc4n3C)nc12 [Compound 160]
3. Cc1ccc(-c2cn(C)c(CCc3ccc4ncccc4n3)n2)cn1 [Compound 174]
4. O=c1[nH]c2ccccc2nc1CCc1nc(-c2ccccc2)c[nH]1 [Compound 2]

[out]
1000 to 10000 nM
500 to 1000 nM
500 to 1000 nM
< 500 nM

* * *

# studyTarget: recombinant human PDE-10 enzyme (PDE-10A) (Homo sapiens (Human))
# assayComment: IMAP PDE Fluorescence Polarization assay, human PDE-10 inhibition (enzyme assay)
# Format: biochemical
# conditionDescription: recombinant human PDE-10, fluorescein-labeled cAMP/cGMP substrate, 40 min at 37° C.
pIC50: −log10 of the molar value.
propertyLabel: pIC50

Would you mind giving pIC50 for every compound in the list below?
1. c1ccc(-c2c[nH]c(CNc3cnc4ccccc4n3)n2)cc1
2. Cn1cc(-c2cccc(F)c2)nc1CCc1cnc2ccccc2n1
3. Fc1cccc(-c2c[nH]c(CCc3ccc4ccccc4n3)n2)c1F
4. Cc1ncc(C)n2nc(CCc3ccc4ccc5c(c4n3)NCCC5)nc12

[out]
1: 5.00 to 6.00; 2: > 6.30; 3: 6.00 to 6.30; 4: > 6.30

Report pIC50 for every entry below.
1. CC(C)(C)c1ccc2nc(CCc3cnc4ccccc4n3)[nH]c2c1
2. Cc1cnc(C)c(CCc2nc(-c3ccccc3)cn2C)n1
3. Cc1ncc(C)n2nc(CCc3ccc4ncccc4n3)nc12

[out]
5.00 to 6.00
> 6.30
> 6.30

Field: pIC50. Fill in for each record below.
1. c1ccc(-c2nc(CCc3cnc4ccccc4n3)n3c2CCCC3)cc1
2. c1cnc2ccc(CCc3cn4ccc5ncccc5c4n3)nc2c1
3. O=c1[nH]c(CCc2nc(-c3ccccc3F)c[nH]2)nc2ccccc12
4. Cc1ncc(C)n2nc(CCc3ccc4ccc5ncccc5c4n3)nc12
5. c1cnc2c(c1)ccc1ccc(CCc3cnc4ccccc4n3)nc12
6. Cc1ccc(C)c2nc(CCc3nc4ccc5ncccc5c4n3C)cnc12

[out]
["> 6.30", "> 6.30", "> 6.30", "> 6.30", "> 6.30", "> 6.30"]

* * *

Answer each item with its documented IC50.
# studyTarget: recombinant human PDE-10 enzyme (PDE-10A) (Homo sapiens (Human), UniProt Q9Y233)
# assayComment: IMAP PDE Fluorescence Polarization assay, human PDE-10 inhibition (enzyme assay)
# Assay type: biochemical
# conditionDescription: recombinant human PDE-10, fluorescein-labeled cAMP/cGMP substrate, 40 min at 37° C.

// worked examples, IC50 included
Cc1ccnc2ccc(CCc3nc4c5cccnc5ccn4c3C)nc12 ... < 500 nM
O=c1[nH]c(CCc2ccc(-c3ccccc3)s2)nc2ccccc12 ... > 10000 nM
Cn1c(CCc2cnc3ccccc3n2)nc2c3c(ccc21)NCCC3 ... < 500 nM
Cc1ncc(C)n2nc(CCc3ccc4c(F)ccc(F)c4n3)nc12 ... 500 to 1000 nM

Just so you know, measured IC50 for `Cc1nc(CCc2nc3c4cccnc4ccc3n2C)nc2c1CCC2` came out at < 500 nM
